test system: LLC-PK1; experiment: Renoprotective activity in pig LLC-PK1 cells assessed as inhibition of cisplatin-induced damage by measuring cell viability up to 100 uM preincubated for 24 hrs followed by addition of Ez-Cytox reagent and measured after 2 hrs relative to control; assay type: functional; conditions: Sus scrofa
Activity calls are given as the source filed them. The calls are words filed in the database; no cut-off is given here.
quantity_kind: Activity

Known Activity results, listed for orientation:
line_notation	Activity
C[C@@H]1O[C@@H](Oc2cc(O)c3c(=O)c(-c4ccc(O)cc4)coc3c2)[C@H](O)[C@H](O)[C@H]1O	Active
C[C@@H]1O[C@@H](Oc2ccc(-c3coc4cc(O[C@@H]5O[C@@H](C)[C@H](O)[C@@H](O)[C@H]5O)ccc4c3=O)cc2)[C@H](O)[C@H](O)[C@H]1O	Active
O=c1c(-c2ccc(O)cc2)coc2cc(O[C@@H]3O[C@H](CO)[C@@H](O)[C@H](O)[C@H]3O)cc(O)c12	Active
O=c1c(-c2ccc(O)cc2)coc2cc(O)ccc12	Active
CO[C@@H]1[C@@H](O)[C@H](C)O[C@@H](Oc2ccc(-c3coc4cc(O[C@@H]5O[C@@H](C)[C@H](O)[C@@H](OC)[C@H]5O)ccc4c3=O)cc2)[C@@H]1O	Active

Tell me Activity reported for C[C@@H]1O[C@@H](Oc2ccc(-c3coc4cc(O[C@@H]5O[C@@H](C)[C@H](O)[C@@H](O)[C@H]5O)cc(O)c4c3=O)cc2)[C@H](O)[C@H](O)[C@H]1O
Active

Tell me Activity reported for CO[C@@H]1[C@@H](O)[C@H](C)O[C@@H](Oc2ccc(-c3coc4cc(O[C@@H]5O[C@@H](C)[C@H](O)[C@@H](OC)[C@H]5O)cc(O)c4c3=O)cc2)[C@@H]1O
Active
